Reported % inhibition at 5 µg/ml antibody values for the following binders.
# Measured on: T1, human GM-CSF (human, UniProt P04141 18-144)
# T1 construct: mature; the preparation is named under assay or readout; also called hGM-CSF; recombinant human GM-CSF
# Assay method text: FACS receptor inhibition assay: inhibition of binding of 0.5 µg/ml biotinylated GM-CSF to GM-CSF receptor alpha on CHO-GMRa#11 cells
Quantity measured: % inhibition at 5 µg/ml antibody

Binder	Quantity measured	Result
MOR04251 Fab (Fab, V domains shown) VH: QVQLVESGGGLVQPGGSLRLSCAASGFTFSSHWMSWVRQAPGKGLEWVSNIWRGPYIYYADSVKGRFTISRDNSKNTLYLQMNSLRAEDTAVYYCARFQGYGGGFDYWGQGTLVTVSS VL: DIELTQPPSVSVAPGQTARISCSGDNLPGKYVHWYQQKPGQAPVLVIYYDSNRPSGIPERFSGSNSGNTATLTISGTQAEDEADYYCQSRTQTTIVFGGGTKLTVLG	% inhibition at 5 µg/ml antibody	~100%
MOR04302 Fab (Fab, V domains shown, Fab with FLAG and 6xHis tags) VH: QVQLVESGGGLVQPGGSLRLSCAASGFTFSSYWMNWVRQAPGKGLEWVSGISYSGSETYYADSVKGRFTISRDNSKNTLYLQMNSLRAEDTAVYYCARGFGTDFWGQGTLVTVSS VL: DIELTQPPSVSVAPGQTARISCSGDSIGKKYAYWYQQKPGQAPVLVIYKKRPSGIPERFSGSNSGNTATLTISGTQAEDEADYYCSAWGDKGMVFGGGTKLTVLG	% inhibition at 5 µg/ml antibody	~75%
MOR04290 Fab (Fab, V domains shown, Fab with FLAG and 6xHis tags) VH: QVQLVESGGGLVQPGGSLRLSCAASGFTFSSYWMNWVRQAPGKGLEWVSGIESKWAGGATYYAAGVKGRFTISRDNSKNTLYLQMNSLRAEDTAVYYCARGFGTDFWGQGTLVTVSS VL: DIELTQPPSVSVAPGQTARISCSGDSIGKKYAYWYQQKPGQAPVLVIYKKRPSGIPERFSGSNSGNTATLTISGTQAEDEADYYCSSWDSTGLVFGGGTKLTVLG	% inhibition at 5 µg/ml antibody	~75%
